// data source = patent US8471036B2

System: leishmania protozoa in macrophages (L. Don)
ASSAY_PROCEDURE: Leishmania protozoa proliferation inhibition test in macrophages
Format: cell-based, Leishmania donovani
MEASUREMENT_SETUP: Leishmania, Macrophage, 96 h; amastigotes in murine peritoneal macrophages, 4 days incubation, number of infected macrophages
pIC50: −log10 of the molar value.
REPORTED_PROPERTY: pIC50

MOLECULE: CCn1c(=O)/c(=C/C=C2\Sc3ccccc3N2C)s/c1=C\c1sc2ccc(F)cc2[n+]1C.[Cl-] [Compound A]
REPORTED_PROPERTY: pIC50
NUMERIC_RESULT: 6.45

* * *

System: Rat-derived L6 cells (rat skeletal myoblast cells)
ASSAY_PROCEDURE: Rat L6 cell proliferation inhibition test
Format: cell-based
MEASUREMENT_SETUP: rat L6 cells, 72 hours incubation, Alamar Blue; read-out: 50% Proliferation Inhibitory Concentration IC50 L-6 Cells
REPORTED_PROPERTY: IC50

SMILES_RECORD: CCn1c(=O)/c(=C/C=C2\Sc3ccccc3N2C)s/c1=C\c1sc2ccc(F)cc2[n+]1C.[Cl-]
REPORTED_PROPERTY: IC50
RESULT: > 173 µM
